meta.source: patent US8993717B2

# method.summary: Mouse pharmacokinetics study, single i.v. injection
# Type: in vivo, male CD1 mice
# condition.info: male, CD1, mouse, plasma, iv, 10 mg/kg, i.v., mice; read-out: terminal half-life (converted)
Square brackets hold non-standard residues; d marks the D form. Peptide text beside a SMILES is read from it.
readout.name: half-life

Req: Give the measured half-life of CC(=O)N[C@H](Cc1ccc(O)cc1)C(=O)N[C@H](CCCNC(=N)N)C(=O)N[C@H](Cc1ccccc1)C(N)=O [Compound 17, Ac-D-Tyr-D-Arg-D-Phe-NH2] (Ac-[dY]-[dR]-[dF]-NH2) .
Resp: ~8 h

---

# Tested on: KMS11 multiple myeloma cells
# method.summary: [3H]thymidine incorporation assay in KMS11
# Format: cell-based, human
# condition.info: Day 1; read-out: IC50 [H^3] thymidine incorporation assay in KMS11
Square brackets hold non-standard residues; d marks the D form. Peptide text beside a SMILES is read from it. * marks the point of attachment. Cbz = O=C(OCc1ccccc1)*
Would you kindly list IC50 for each of these molecules?

// below: answered molecules
Req: # input molecule: CC(=O)N[C@H](Cc1ccc(O)cc1)C(=O)N[C@H](CCCNC(=N)N)C(=O)N[C@H](Cc1ccccc1)C(N)=O [Compound 17, Ac-D-Tyr-D-Arg-D-Phe-NH2] (Ac-[dY]-[dR]-[dF]-NH2) ; wanted: its IC50
Resp: 1 µM

Req: Suppose we examine the molecule CSCC[C@@H](NC(=O)[C@@H](Cc1ccc(O)cc1)NC(=O)OCc1ccccc1)C(=O)N[C@H](Cc1ccccc1)C(N)=O [Z-Tyr-Met-Phe-NH2] (Cbz-[dY]-[dM]-[dF]-NH2) ; what IC50 value has been reported?
Resp: > 10 µM

Req: Which IC50 is reported for this molecule? N=C(N)NCCC[C@@H](NC(=O)[C@@H](CCC(=O)O)NC(=O)[C@@H](Cc1ccc(O)cc1)NC(=O)OCc1ccccc1)C(=O)N[C@H](Cc1ccccc1)C(N)=O [Compound 9, Z-D-Tyr-D-Glu-D-Arg-D-Phe-NH2] (Cbz-[dY][dE][dR][dF]-NH2)
Resp: 2.9 µM

Req: Entry NC(=O)C[C@@H](NC(=O)[C@@H](Cc1ccc(O)cc1)NC(=O)OCc1ccccc1)C(=O)N[C@H](Cc1ccccc1)C(N)=O [Z-Tyr-Asn-Phe-NH2] (Cbz-[dY]-[dN]-[dF]-NH2) : reported IC50 = ?
Resp: > 10 µM

Req: Fill in the blank: the reported IC50 of N=C(N)NCCC[C@@H](NC(=O)[C@@H](CCC(N)=O)NC(=O)[C@@H](Cc1ccc(O)cc1)NC(=O)OCc1ccccc1)C(=O)N[C@H](Cc1ccccc1)C(N)=O [Z-Tyr-Gln-Arg-Phe-NH2] (Cbz-[dY][dQ][dR][dF]-NH2) is ____.
Resp: > 10 µM

Let's switch to this molecule now.
Req: Return reported IC50; argument: NC(=O)CC[C@@H](NC(=O)[C@@H](Cc1ccc(O)cc1)NC(=O)OCc1ccccc1)C(=O)N[C@H](Cc1ccccc1)C(N)=O [Z-Tyr-Gln-Phe-NH2] (Cbz-[dY]-[dQ]-[dF]-NH2)
Resp: > 10 µM

---

# measured.on: Gadd45β/MKK7 interaction (Homo sapiens)
# Construct: The GST-fused full-length kinase was coated for 16 h at 4° C., at a concentration of 42 nM; made in house
# Sequence (O14733 1-419): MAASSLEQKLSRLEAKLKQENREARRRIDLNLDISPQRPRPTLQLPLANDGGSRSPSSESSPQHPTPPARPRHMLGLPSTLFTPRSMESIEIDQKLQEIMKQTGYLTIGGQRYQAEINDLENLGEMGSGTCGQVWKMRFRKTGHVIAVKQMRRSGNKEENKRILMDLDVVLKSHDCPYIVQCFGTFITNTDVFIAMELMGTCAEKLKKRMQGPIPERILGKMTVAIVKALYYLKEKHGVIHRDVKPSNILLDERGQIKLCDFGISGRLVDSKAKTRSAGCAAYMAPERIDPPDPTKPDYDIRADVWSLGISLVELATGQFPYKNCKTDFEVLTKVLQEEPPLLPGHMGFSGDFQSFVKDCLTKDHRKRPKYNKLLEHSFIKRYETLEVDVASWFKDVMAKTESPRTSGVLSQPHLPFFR
# method.summary: ELISA competition assay of biotin-hGadd45β binding to coated GST-MKK7
# condition.info: Table III, modified peptides
* marks the point of attachment. Fmoc = O=C(OCC1c2ccccc2-c2ccccc21)*; Cbz = O=C(OCc1ccccc1)*
readout.name: % Inhibition of Gadd45β-MKK7 binding (%)
One number for each entry, in %.

Req: Which % Inhibition of Gadd45β-MKK7 binding is reported for this substance? Ac-YDHQLys(Z)-NH2 (Ac-YDHQK(Cbz)-NH2; SMILES CC(=O)N[C@@H](Cc1ccc(O)cc1)C(=O)N[C@@H](CC(=O)O)C(=O)N[C@@H](Cc1c[nH]cn1)C(=O)N[C@@H](CCC(N)=O)C(=O)N[C@@H](CCCCNC(=O)OCc1ccccc1)C(N)=O)
Resp: 2

Batch of 3 substances: report % Inhibition of Gadd45β-MKK7 binding for each.
1. Ac-YDHFLys(Z)-NH2 (Ac-YDHFK(Cbz)-NH2; SMILES CC(=O)N[C@@H](Cc1ccc(O)cc1)C(=O)N[C@@H](CC(=O)O)C(=O)N[C@@H](Cc1c[nH]cn1)C(=O)N[C@@H](Cc1ccccc1)C(=O)N[C@@H](CCCCNC(=O)OCc1ccccc1)C(N)=O)
2. Fmoc-YDFQ-NH2 (SMILES NC(=O)CC[C@H](NC(=O)[C@H](Cc1ccccc1)NC(=O)[C@H](CC(=O)O)NC(=O)[C@H](Cc1ccc(O)cc1)NC(=O)OCC1c2ccccc2-c2ccccc21)C(N)=O)
3. Ac-YERFLys(Z)-NH2 (Ac-YERFK(Cbz)-NH2; SMILES CC(=O)N[C@@H](Cc1ccc(O)cc1)C(=O)N[C@@H](CCC(=O)O)C(=O)N[C@@H](CCCNC(=N)N)C(=O)N[C@@H](Cc1ccccc1)C(=O)N[C@@H](CCCCNC(=O)OCc1ccccc1)C(N)=O)

Resp:
[8, 19, 6]
